Molecular target: delta opioid receptor (Mus musculus, UniProt P32300)
Sequence (P32300 whole entry): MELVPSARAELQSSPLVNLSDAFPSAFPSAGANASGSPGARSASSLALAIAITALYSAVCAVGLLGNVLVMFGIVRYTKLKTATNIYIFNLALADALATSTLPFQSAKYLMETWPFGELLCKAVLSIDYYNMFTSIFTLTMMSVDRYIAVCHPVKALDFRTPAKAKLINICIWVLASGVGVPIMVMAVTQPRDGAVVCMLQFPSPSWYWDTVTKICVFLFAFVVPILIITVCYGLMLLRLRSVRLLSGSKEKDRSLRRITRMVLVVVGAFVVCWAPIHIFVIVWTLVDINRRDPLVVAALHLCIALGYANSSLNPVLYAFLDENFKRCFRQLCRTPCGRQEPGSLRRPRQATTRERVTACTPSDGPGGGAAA
Experiment: radioligand binding assay, delta receptor ([3H]-DADLE, mouse brain membranes)
Settings: [3H]-DADLE 1.3 nM in presence of 40 nM DAMGO, read-out: Ki δ
pKi: −log10 of the molar value.
Observed Property: pKi

[
  {
    "Compound": "CCN(CC)C(=O)c1ccc(N(c2cccc(O)c2)C(C)CN2CCCC2)cc1 (racemic)",
    "Observed Property": "pKi",
    "Number": 8.41
  },
  {
    "Compound": "CCN(CC)C(=O)c1ccc(N(c2cccc(O)c2)C(C)CN(C)C)cc1 (racemic)",
    "Observed Property": "pKi",
    "Number": 8.41
  }
]

###

Molecular target: delta opioid receptor (Mus musculus)
Test: mouse vas deferens (MVD) bioassay, delta agonist/antagonist activity
Settings: electrically stimulated CD-1 mouse vas deferens, 37° C.; delta agonists

[
  {
    "Compound": "CCN(CC)C(=O)c1ccc(N(c2cccc(O)c2)C(C)CN2CCCC2)cc1 (racemic) [Example 5]",
    "IC50": "7 nM"
  }
]
